Just for reference, the supplement of paper PMC10307832 is where these values come from.

- System: NCI-H661
- procedure-summary: relative viability (nuclei count vs DMSO), 5 days (fraction); higher = more cells survive
- experimental-setup: first compound 0.06325 µM
# maps each entry to its relative viability
Enter the number alone.

The cases that follow already have their relative viability on record.
INSERT INTO results (compound, endpoint_name, numeric_value) VALUES
  ('CCNC(=O)c1noc(-c2cc(C(C)C)c(O)cc2O)c1-c1ccc(CN2CCOCC2)cc1 [Luminespib] + Cc1cc(Nc2cc(N3CCN(C)CC3)nc(Sc3ccc(NC(=O)C4CC4)cc3)n2)n[nH]1 [Tozasertib] (partner 0.1 µM)', 'relative viability', 0.357),
  ('CCNC(=O)c1noc(-c2cc(C(C)C)c(O)cc2O)c1-c1ccc(CN2CCOCC2)cc1 [Luminespib] + CS(=O)(=O)CCNCc1ccc(-c2ccc3ncnc(Nc4ccc(OCc5cccc(F)c5)c(Cl)c4)c3c2)o1 [Lapatinib] (partner 2 µM)', 'relative viability', 0.324);

Switching to the query record.
Please look up its relative viability: CCNC(=O)c1noc(-c2cc(C(C)C)c(O)cc2O)c1-c1ccc(CN2CCOCC2)cc1 [Luminespib] + O=C(CCCCCCC(=O)Nc1ccccc1)NO [Vorinostat] (partner 1 µM)
0.345

---

- Tested on: HCC-44
- procedure-summary: relative viability (nuclei count vs DMSO), 5 days (fraction); higher = more cells survive
- experimental-setup: first compound 2 µM
relative viability less than 0.9 is condition met; relative viability greater than or equal to 0.9 is condition not met.

Reference set, count: 4
INSERT INTO results (compound, discrete_label) VALUES
  ('CN1CCN(CCOc2cc(OC3CCOCC3)c3c(Nc4c(Cl)ccc5c4OCO5)ncnc3c2)CC1 [Saracatinib] + CC(=O)Nc1cccc(-n2c(=O)n(C3CC3)c(=O)c3c(Nc4ccc(I)cc4F)n(C)c(=O)c(C)c32)c1 [Trametinib] (partner 0.02 µM)', 'condition not met'),
  ('CN1CCN(CCOc2cc(OC3CCOCC3)c3c(Nc4c(Cl)ccc5c4OCO5)ncnc3c2)CC1 [Saracatinib] + C[C@]1(O)C[C@@H](c2nc(-c3ccc4ccc(-c5ccccc5)nc4c3)c3c(N)nccn32)C1 [Linsitinib] (partner 1 µM)', 'condition met'),
  ('Cc1csc(=NC2CCCCC2)n1/N=C/c1ccc(O)c(O)c1O [MIM1] + NC(=O)Nc1cc(-c2cccc(F)c2)sc1C(=O)N[C@H]1CCCNC1 [AZD7762] (partner 0.2 µM)', 'condition not met'),
  ('CN1CCN(CCOc2cc(OC3CCOCC3)c3c(Nc4c(Cl)ccc5c4OCO5)ncnc3c2)CC1 [Saracatinib] + CC(=O)c1c(C)c2cnc(Nc3ccc(N4CCNCC4)cn3)nc2n(C2CCCC2)c1=O [Palbociclib] (partner 0.5 µM)', 'condition not met');

Consider the compound Cc1csc(=NC2CCCCC2)n1/N=C/c1ccc(O)c(O)c1O [MIM1] + CC1(C)CCC(c2ccc(Cl)cc2)=C(CN2CCN(c3ccc(C(=O)NS(=O)(=O)c4ccc(N[C@H](CCN5CCOCC5)CSc5ccccc5)c(S(=O)(=O)C(F)(F)F)c4)cc3)CC2)C1 [Navitoclax] (partner 0.5 µM) . Is its relative viability strictly less than 0.9?
condition met

Check CN1CCN(CCOc2cc(OC3CCOCC3)c3c(Nc4c(Cl)ccc5c4OCO5)ncnc3c2)CC1 [Saracatinib] + C[C@@H](Oc1cc(-c2cnn(C3CCNCC3)c2)cnc1N)c1c(Cl)ccc(F)c1Cl [Crizotinib] (partner 1 µM) too.
condition not met

---

- Tested on: LC-2-ad
- procedure-summary: relative viability (nuclei count vs DMSO), 5 days (fraction); higher = more cells survive
- experimental-setup: first compound 0.2 µM
relative viability less than 0.3 is True; relative viability greater than or equal to 0.3 is False.

Reference set, count: 6
INSERT INTO measurements (molecule, discrete_label) VALUES
  ('CCNC(=O)c1noc(-c2cc(C(C)C)c(O)cc2O)c1-c1ccc(CN2CCOCC2)cc1 [Luminespib] + O=C(CCCCCCC(=O)Nc1ccccc1)NO [Vorinostat] (partner 1 µM)', 'True'),
  ('Cc1csc(=NC2CCCCC2)n1/N=C/c1ccc(O)c(O)c1O [MIM1] + O=C(CCCCCCC(=O)Nc1ccccc1)NO [Vorinostat] (partner 1 µM)', 'False'),
  ('Cc1csc(=NC2CCCCC2)n1/N=C/c1ccc(O)c(O)c1O [MIM1] + CCNC(=O)c1noc(-c2cc(C(C)C)c(O)cc2O)c1-c1ccc(CN2CCOCC2)cc1 [Luminespib] (partner 0.01 µM)', 'False'),
  ('CCNC(=O)c1noc(-c2cc(C(C)C)c(O)cc2O)c1-c1ccc(CN2CCOCC2)cc1 [Luminespib] + CC(=O)c1c(C)c2cnc(Nc3ccc(N4CCNCC4)cn3)nc2n(C2CCCC2)c1=O [Palbociclib] (partner 0.5 µM)', 'False'),
  ('CCNC(=O)c1noc(-c2cc(C(C)C)c(O)cc2O)c1-c1ccc(CN2CCOCC2)cc1 [Luminespib] + Nc1nc2[nH]cc(CCc3ccc(C(=O)N[C@@H](CCC(=O)O)C(=O)O)cc3)c2c(=O)[nH]1 [Pemetrexed] (partner 0.2 µM)', 'True'),
  ('CCNC(=O)c1noc(-c2cc(C(C)C)c(O)cc2O)c1-c1ccc(CN2CCOCC2)cc1 [Luminespib] + CC1(C)CCC(c2ccc(Cl)cc2)=C(CN2CCN(c3ccc(C(=O)NS(=O)(=O)c4ccc(N[C@H](CCN5CCOCC5)CSc5ccccc5)c(S(=O)(=O)C(F)(F)F)c4)cc3)CC2)C1 [Navitoclax] (partner 0.5 µM)', 'True');

Consider the molecule CN1CCN(CCOc2cc(OC3CCOCC3)c3c(Nc4c(Cl)ccc5c4OCO5)ncnc3c2)CC1 [Saracatinib] + NC(=O)Nc1cc(-c2cccc(F)c2)sc1C(=O)N[C@H]1CCCNC1 [AZD7762] (partner 0.2 µM) . Is its relative viability strictly less than 0.3?
False

---

- Test system: LXF-289
- procedure-summary: relative viability (nuclei count vs DMSO), 5 days (fraction); higher = more cells survive
- experimental-setup: first compound 20 µM
# maps each entry to its relative viability

The cases that follow already have their relative viability on record.
INSERT INTO assay_data (molecule, result) VALUES
  ('Cc1csc(=NC2CCCCC2)n1/N=C/c1ccc(O)c(O)c1O [MIM1] + Cc1cc(Nc2cc(N3CCN(C)CC3)nc(Sc3ccc(NC(=O)C4CC4)cc3)n2)n[nH]1 [Tozasertib] (partner 0.1 µM)', 0.117),
  ('Cc1csc(=NC2CCCCC2)n1/N=C/c1ccc(O)c(O)c1O [MIM1] + N=C(N)NC(=N)NCCc1ccccc1 [Phenformin] (partner 250 µM)', 0.264),
  ('Cc1csc(=NC2CCCCC2)n1/N=C/c1ccc(O)c(O)c1O [MIM1] + C[C@]1(O)C[C@@H](c2nc(-c3ccc4ccc(-c5ccccc5)nc4c3)c3c(N)nccn32)C1 [Linsitinib] (partner 1 µM)', 0.624);

Please look up its relative viability: Cc1csc(=NC2CCCCC2)n1/N=C/c1ccc(O)c(O)c1O [MIM1] + Cc1nc(Nc2ncc(C(=O)Nc3c(C)cccc3Cl)s2)cc(N2CCN(CCO)CC2)n1 [Dasatinib] (partner 0.075 µM)
0.177

---

- Test system: HCC-44
- procedure-summary: relative viability (nuclei count vs DMSO), 5 days (fraction); higher = more cells survive
- experimental-setup: first compound 0.2 µM
endpoint-name: relative viability
Enter the number alone.

The cases that follow already have their relative viability on record.
INSERT INTO measurements (compound, endpoint_name, numeric_value) VALUES
  ('Cc1csc(=NC2CCCCC2)n1/N=C/c1ccc(O)c(O)c1O [MIM1] + CC1(C)CCC(c2ccc(Cl)cc2)=C(CN2CCN(c3ccc(C(=O)NS(=O)(=O)c4ccc(N[C@H](CCN5CCOCC5)CSc5ccccc5)c(S(=O)(=O)C(F)(F)F)c4)cc3)CC2)C1 [Navitoclax] (partner 0.5 µM)', 'relative viability', 0.93),
  ('CN1CCN(CCOc2cc(OC3CCOCC3)c3c(Nc4c(Cl)ccc5c4OCO5)ncnc3c2)CC1 [Saracatinib] + Nc1nc2[nH]cc(CCc3ccc(C(=O)N[C@@H](CCC(=O)O)C(=O)O)cc3)c2c(=O)[nH]1 [Pemetrexed] (partner 0.2 µM)', 'relative viability', 0.607),
  ('CN1CCN(CCOc2cc(OC3CCOCC3)c3c(Nc4c(Cl)ccc5c4OCO5)ncnc3c2)CC1 [Saracatinib] + C[C@]1(O)C[C@@H](c2nc(-c3ccc4ccc(-c5ccccc5)nc4c3)c3c(N)nccn32)C1 [Linsitinib] (partner 1 µM)', 'relative viability', 0.51);

Please look up its relative viability: Cc1csc(=NC2CCCCC2)n1/N=C/c1ccc(O)c(O)c1O [MIM1] + COc1cccc2cc(-c3nc([C@H]4CC[C@H](C(=O)O)CC4)n4ncnc(N)c34)[nH]c12 [OSI-027] (partner 0.5 µM)
0.699
